System: male dd-strain rats
Assay: Acute toxicity test (minimum lethal dose)
Format: in vivo
Conditions: po; mortality for 7 days
# Acute toxicity: MLD (minimum lethal dose) per record follows
measurement-label: Acute toxicity: MLD (minimum lethal dose) (mg/kg)

                                   compound  result_units  measurement_qualifier  endpoint_result
0  CCN(CC)CCCNC1c2ccccc2COc2ccc(F)cc21 (stereo not shown)         mg/kg                      >              300
1  CCc1ccc2c(c1)C(NCCN1CCCCC1)c1ccccc1CO2 (stereo not shown)         mg/kg                      =              300
2  c1ccc2c(c1)COc1ccc(C3CCCCC3)cc1C2NC1CN2CCC1CC2 (stereo not shown)         mg/kg                      >              300
3  CCC(C)(C)c1ccc2c(c1)C(NC1CN3CCC1CC3)c1ccccc1CO2 (stereo not shown)         mg/kg                      >              300
4  CCC(C)c1ccc2c(c1)C(NC1CN3CCC1CC3)c1ccccc1CO2 (stereo not shown)         mg/kg                      >              300
5  CN1CCN(C2c3ccccc3COc3ccc(Cl)cc32)CC1 (stereo not shown)         mg/kg                      =              200
6  Clc1ccc2c(c1)C(NC1CN3CCC1CC3)c1ccccc1CO2 (stereo not shown)         mg/kg                      =              300
7  CN(C)CCNC1c2ccccc2COc2ccc(Cl)cc21 (stereo not shown)         mg/kg                      >              300
8  Cc1ccc2c(c1)C(NC1CN3CCC1CC3)c1ccccc1CO2 (stereo not shown)         mg/kg                      =              300
9  CCc1ccc2c(c1)C(NCCN(C)C)c1ccccc1CO2 (stereo not shown)         mg/kg                      =              300

* * *

Test system: male dd-strain rats
Test: Acute toxicity test (minimum lethal dose)
Format: in vivo
Conditions: po; mortality for 7 days
# Acute toxicity: MLD (minimum lethal dose) per record follows
measurement-label: Acute toxicity: MLD (minimum lethal dose) (mg/kg)

>>> print(df.to_string())
                                   molecule          measured_on  result_units  measurement_qualifier  endpoint_result
0  Cc1ccc2c(c1)C(NCCCN(C)C)c1ccccc1CO2 (stereo not shown)  male dd-strain rats         mg/kg                      >              300
1  CCN1CCCC(NC2c3ccccc3COc3ccc(C)cc32)C1 (stereo not shown)  male dd-strain rats         mg/kg                      =              300
2  CCc1ccc2c(c1)C(NCCN(CC)CC)c1ccccc1CO2 (stereo not shown)  male dd-strain rats         mg/kg                      >              300
3  CCN(CC)CCNC1c2ccccc2COc2ccc(C)cc21 (stereo not shown)  male dd-strain rats         mg/kg                      =              200
4  COc1ccc2c(c1)C(N1CCN(C)CC1)c1ccccc1CO2 (stereo not shown)  male dd-strain rats         mg/kg                      =              200
5  c1ccc(-c2cccc3c2OCc2ccccc2C3NC2CN3CCC2CC3)cc1 (stereo not shown)  male dd-strain rats         mg/kg                      >              300
6  CCc1ccc2c(c1)C(NCCCN(C)C)c1ccccc1CO2 (stereo not shown)  male dd-strain rats         mg/kg                      >              300
7  Cc1ccc2c(c1)C(N1CCN(CCN)CC1)c1ccccc1CO2 (stereo not shown)  male dd-strain rats         mg/kg                      >              300
8  COc1ccc2c(c1)C(NC1CN3CCC1CC3)c1ccccc1CO2 (stereo not shown)  male dd-strain rats         mg/kg                      =              200
9  CCc1ccc2c(c1)C(NCCN1CCNCC1)c1ccccc1CO2 (stereo not shown)  male dd-strain rats         mg/kg                      >              300

* * *

Test system: male dd-strain rats
Assay: Acute toxicity test (minimum lethal dose)
Format: in vivo
Conditions: po; mortality for 7 days
# Acute toxicity: MLD (minimum lethal dose) per record follows
measurement-label: Acute toxicity: MLD (minimum lethal dose)

>>> print(df.to_string())
                                    compound          measured_on  endpoint_result
 0  CCN(CC)CCNC1c2ccccc2COc2ccc(OC)cc21 (stereo not shown) [Compound 13]  male dd-strain rats      > 300 mg/kg
 1  OCCN1CCN(C2c3ccccc3COc3ccc(F)cc32)CC1 (stereo not shown) [Compound 39]  male dd-strain rats      > 300 mg/kg
 2  c1ccc(-c2ccc3c(c2)C(NC2CN4CCC2CC4)c2ccccc2CO3)cc1 (stereo not shown) [Compound 55]  male dd-strain rats      > 300 mg/kg
 3  Cc1ccc2c(c1)C(N1CCN(CCO)CC1)c1ccccc1CO2 (stereo not shown) [Compound 37]  male dd-strain rats      > 300 mg/kg
 4  Fc1ccc2c(c1)C(NCC1COc3ccccc3O1)c1ccccc1CO2 (stereo not shown) [Compound 30]  male dd-strain rats      > 300 mg/kg
 5  Cc1ccc2c(c1)C(N1CCN(C)CC1)c1ccccc1CO2 (stereo not shown) [Compound 67]  male dd-strain rats      > 300 mg/kg
 6  CN1CCN(C2c3ccccc3COc3c(-c4ccccc4)cccc32)CC1 (stereo not shown) [Compound 47]  male dd-strain rats        200 mg/kg
 7  CCN(CC)CCCNC1c2ccccc2COc2ccc(OC)cc21 (stereo not shown) [Compound 7]  male dd-strain rats      > 300 mg/kg
 8  Cc1cccc2c1OCc1ccccc1C2N1CCN(CCO)CC1 (stereo not shown) [Compound 41]  male dd-strain rats      > 300 mg/kg
 9  Cc1ccc2c(c1)C(NCCN(C)C)c1ccccc1CO2 (stereo not shown) [Compound 16]  male dd-strain rats        300 mg/kg
10  Cc1ccc2c(c1)C(Nc1ccc3[nH]ccc3c1)c1ccccc1CO2 (stereo not shown) [Compound 62]  male dd-strain rats      > 300 mg/kg
11  CCc1ccc2c(c1)C(N1CCN(C)CC1)c1ccccc1CO2 (stereo not shown) [Compound 66]  male dd-strain rats      > 300 mg/kg
12  CC(CCc1ccccc1)NC1c2ccccc2COc2ccc(F)cc21 (stereo not shown) [Compound 32]  male dd-strain rats      > 300 mg/kg
13  Fc1ccc(C(c2ccc(F)cc2)N2CCN(C3c4ccccc4COc4ccc(F)cc43)CC2)cc1 (stereo not shown) [Compound 43]  male dd-strain rats      > 300 mg/kg
14  CCc1ccc2c(c1)C(NC1CC(C)(C)NC(C)(C)C1)c1ccccc1CO2 (stereo not shown) [Compound 63]  male dd-strain rats        200 mg/kg
15  Fc1ccc2c(c1)C(NCCN(Cc1ccccc1)Cc1ccccc1)c1ccccc1CO2 (stereo not shown) [Compound 34]  male dd-strain rats        300 mg/kg
16  Cc1ccc2c(c1)C(NN1CCN(C)CC1)c1ccccc1CO2 (stereo not shown) [Compound 29]  male dd-strain rats      > 300 mg/kg
17  Cc1ccc2c(c1)C(N1CCC3(CC1)OCCO3)c1ccccc1CO2 (stereo not shown) [Compound 65]  male dd-strain rats      > 300 mg/kg
18  CCN1CCCC1CNC1c2ccccc2COc2ccc(C)cc21 (stereo not shown) [Compound 28]  male dd-strain rats        300 mg/kg

* * *

Test system: blood platelets (platelet-rich plasma)
Assay: Test for the inhibition of platelet aggregation (collagen-induced, platelet-rich plasma)
Type: cell-based, male white rabbits
Conditions: Oryctolagus cuniculus, Platelet, 0.05 h; depressing ratio of 50% of collagen-induced aggregation; compound 3 minutes before; read-out: Antiplatelet aggregation activity: MED
measurement-label: minimal effective concentration (µg/mL)

>>> df
                                   compound  endpoint_result
0  CCN(CC)CCNC1c2ccccc2COc2ccc(Cl)cc21 (centres unmarked) [Compound 10]                2
1  CCc1ccc2c(c1)C(NCCCN(CC)CC)c1ccccc1CO2 (centres unmarked) [Compound 2]                1
2  CCN1CCCC(NC2c3ccccc3COc3ccc(C)cc32)C1 (centres unmarked) [Compound 27]              100
3  Fc1ccc2c(c1)C(NCCOC(c1ccccc1)c1ccccc1)c1ccccc1CO2 (centres unmarked) [Compound 33]              100
4  CCN(CC)CCNC1c2ccccc2COc2ccc(C)cc21 (centres unmarked) [Compound 8]               20
